# maps each entry to its normalized growth
Measurement notes: chemical genetic growth profiling, strain panel (AID 1159580);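 further: tested at 20 µM; growth read once vehicle control cultures reached saturation at 30 °C; 1 = growth at the plate median or of vehicle wells; lower values mean less growth of the strain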
Condition details: S. cerevisiae deletion strains, growth OD, locus YHR030C, strain SLT2, active compounds read low
Screen size: about 5,500 compounds; about 2,000 (36%) were called active. Not shown: some 18% with an inconclusive outcome. The list shows a part of the results.
Readout: normalized growth

{"Compound": "NCc1ccc(S(N)(=O)=O)cc1", "Readout": "normalized growth", "Measured": 1.01}
{"Compound": "CCCN(CCC)C(=O)C(CCC(=O)O)NC(=O)c1ccccc1 (stereo unspecified)", "Readout": "normalized growth", "Measured": 0.992}
{"Compound": "O=C(/C=C/c1ccc(O)c(O)c1)O[C@@H]1C[C@](O)(C(=O)O)C[C@@H](O)[C@H]1O", "Readout": "normalized growth", "Measured": 1.01}
{"Compound": "COc1ccc(CN(Cc2ccc(OC)cc2)C(=O)c2cccs2)cc1", "Readout": "normalized growth", "Measured": 0.971}
{"Compound": "CN1c2ccccc2C(=O)NC1c1cc(Br)cs1 (stereo unspecified)", "Readout": "normalized growth", "Measured": 0.99}
{"Compound": "COc1ccc(/C=C/c2cc(O)cc(O[C@@H]3O[C@H](CO)[C@@H](O)[C@H](O)[C@H]3O)c2)cc1O", "Readout": "normalized growth", "Measured": 1}
{"Compound": "CC1(C)CCC(C(C)(C)O)CC1", "Readout": "normalized growth", "Measured": 1.02}
{"Compound": "CC(C)(O)C#Cc1ccc(/C=N\\O)cc1", "Readout": "normalized growth", "Measured": 1}
{"Compound": "CCC(COC(=O)c1cc(OC)c(OC)c(OC)c1)(c1ccccc1)N(C)C (stereo unspecified)", "Readout": "normalized growth", "Measured": 0.976}
{"Compound": "O=C(O)CCNC(=S)Nc1cccc(C(F)(F)F)c1", "Readout": "normalized growth", "Measured": 0.996}
{"Compound": "NC(=O)CCSCCC(N)=O", "Readout": "normalized growth", "Measured": 0.972}

* * *

Recorded normalized growth values for a group of compounds are listed next.
Measurement notes: chemical genetic growth profiling, strain panel (AID 1159580);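 further: tested at 20 µM; growth read once vehicle control cultures reached saturation at 30 °C; 1 = growth at the plate median or of vehicle wells; lower values mean less growth of the strain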
Condition details: S. cerevisiae deletion strains, growth OD, locus YML124C, strain tub3, active compounds read low
Hit rate of the full screen: of about 5,500 compounds, about 2,000 (36%) were called active. About 18% were inconclusive and are not listed. The list shows a part of the results.

{"Compound": "CC(COc1ccccc1)N(CCCl)Cc1ccccc1 (stereo unspecified)", "normalized growth": 1.01}
{"Compound": "CC1=C(/C=C/C(C)=C/C=C/C(C)=C/C=C/C=C(C)/C=C/C=C(C)/C=C/C2=C(C)CCCC2(C)C)C(C)(C)CCC1", "normalized growth": 1}
{"Compound": "CC(=O)OC/C=C(C)/C=C/C=C(C)/C=C/C1=C(C)CCCC1(C)C", "normalized growth": 0.999}
{"Compound": "COc1cc2c(cc1O)CC1c3c(cc(O)c(OC)c3-2)CCN1C (stereo unspecified)", "normalized growth": 0.992}
{"Compound": "CC[C@]12CCCN3CCc4c(n(c5ccccc45)C(=O)C1)[C@@H]32", "normalized growth": 0.979}
{"Compound": "C[C@@H]1CC2C3CCC4=CC(=O)C=C[C@]4(C)[C@@]3(F)[C@@H](O)C[C@]2(C)[C@@]1(O)C(=O)COP(=O)(O)O (stereo partly specified)", "normalized growth": 0.993}
{"Compound": "C=CCN1CC[C@]23c4c5ccc(O)c4OC2C(=O)CC[C@@]3(O)[C@H]1C5 (stereo partly specified)", "normalized growth": 0.991}
{"Compound": "CCOP(=S)(OCC)SCSP(=S)(OCC)OCC", "normalized growth": 0.996}
{"Compound": "CC1=C(/C=C/C(C)=C/C=C/C(C)=C/CO)C(C)(C)CCC1", "normalized growth": 0.996}
{"Compound": "Oc1ccc(/C=C/c2cc(O)cc(O)c2)cc1", "normalized growth": 0.993}
{"Compound": "O=C(O)CCCCC1SCC2NC(=O)NC21 (stereo unspecified)", "normalized growth": 0.996}
